Molecular target: UDP-N-acetylglucosamine--peptide N-acetylglucosaminyltransferase 110 kDa subunit (Homo sapiens, UniProt O15294)
Sequence (O15294 whole entry): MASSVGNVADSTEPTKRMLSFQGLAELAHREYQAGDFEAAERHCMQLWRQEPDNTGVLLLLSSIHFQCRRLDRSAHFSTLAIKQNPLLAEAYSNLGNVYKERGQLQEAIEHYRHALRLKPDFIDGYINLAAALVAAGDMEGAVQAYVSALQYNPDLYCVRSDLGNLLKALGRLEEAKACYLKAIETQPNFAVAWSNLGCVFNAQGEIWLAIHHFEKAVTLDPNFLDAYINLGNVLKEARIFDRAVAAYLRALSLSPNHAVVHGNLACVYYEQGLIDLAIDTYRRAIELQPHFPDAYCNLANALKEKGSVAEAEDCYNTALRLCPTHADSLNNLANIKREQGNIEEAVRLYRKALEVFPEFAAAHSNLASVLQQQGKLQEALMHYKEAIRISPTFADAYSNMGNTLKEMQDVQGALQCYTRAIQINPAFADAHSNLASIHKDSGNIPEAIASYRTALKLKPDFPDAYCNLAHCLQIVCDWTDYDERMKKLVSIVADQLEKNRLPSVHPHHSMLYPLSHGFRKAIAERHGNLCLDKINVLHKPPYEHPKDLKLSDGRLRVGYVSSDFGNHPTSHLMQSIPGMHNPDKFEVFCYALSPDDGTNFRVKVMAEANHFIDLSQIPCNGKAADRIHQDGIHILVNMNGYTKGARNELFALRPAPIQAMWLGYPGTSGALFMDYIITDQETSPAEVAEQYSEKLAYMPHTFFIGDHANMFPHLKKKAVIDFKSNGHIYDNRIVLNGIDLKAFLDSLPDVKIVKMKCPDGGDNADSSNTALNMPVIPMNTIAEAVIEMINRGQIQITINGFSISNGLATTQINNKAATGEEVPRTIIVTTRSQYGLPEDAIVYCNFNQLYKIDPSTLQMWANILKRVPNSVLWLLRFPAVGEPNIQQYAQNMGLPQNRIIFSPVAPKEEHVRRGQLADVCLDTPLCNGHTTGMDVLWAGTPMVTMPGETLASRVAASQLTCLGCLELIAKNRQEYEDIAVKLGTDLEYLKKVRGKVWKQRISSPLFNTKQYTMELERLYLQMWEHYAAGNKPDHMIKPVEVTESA
Assay: Inhibition of human OGT using [3H]-UDP-GlcNAc as donor and recombinant nup2 as acceptor by liquid scintillation counting analysis
Result type: IC50 (µM)
The answer is to be given in µM; state only the numeric part.

Reference set, count: 3
O=c1ccn([C@@H]2O[C@H](Cn3cc(-c4cccc(-c5cn([C@@H]6O[C@H](CO)[C@@H](O)[C@H](O)[C@H]6O)nn5)n4)nn3)[C@@H](O)[C@H]2O)c(=O)[nH]1; 1600
O=C(Oc1ccccc1)n1c(=O)oc2ccc(Cl)cc21; 10
O=C(N[C@@H]1O[C@H](CO)[C@@H](O)[C@H](O)[C@H]1O)c1cccc(Cc2cn(C[C@H]3O[C@@H](n4ccc(=O)[nH]c4=O)[C@H](O)[C@@H]3O)nn2)n1; 340

stdin: Identify the reported IC50 for the following entry. O=c1ccn([C@@H]2O[C@H](Cn3cc(-c4cccc(Br)n4)nn3)[C@@H](O)[C@H]2O)c(=O)[nH]1
stdout: 710

* * *

Each item that follows carries a reported Ki.
Target: UDP-N-acetylglucosamine--peptide N-acetylglucosaminyltransferase 110 kDa subunit (Homo sapiens, UniProt O15294)
Experiment: Inhibition of human OGT using [3H]-UDP-GlcNAc as donor and recombinant nup2 as acceptor by Dixon plot analysis
The answer is to be given in µM; state only the numeric part.

O=C(N[C@@H]1O[C@H](CO)[C@@H](O)[C@H](O)[C@H]1O)c1cccc(Cc2cn(C[C@H]3O[C@@H](n4ccc(=O)[nH]c4=O)[C@H](O)[C@@H]3O)nn2)n1; 420

stdin: Identify the reported Ki for the following entry. CC(=O)N[C@@H]1[C@@H](O)[C@H](O)[C@@H](CO)O[C@@H]1SP(=O)(O)OP(=O)(O)OC[C@H]1O[C@@H](n2ccc(=O)[nH]c2=O)[C@H](O)[C@@H]1O
stdout: 93

stdin: Identify the reported Ki for the following entry. CC(=O)N[C@@H]1[C@@H](O)[C@H](O)[C@@H](CO)S[C@@H]1OP(=O)(O)OP(=O)(O)OC[C@H]1O[C@@H](n2ccc(=O)[nH]c2=O)[C@H](O)[C@@H]1O
stdout: 8
